Test details: qHTS assay for measurement of the activity of small molecule inhibitors on Zika virus induced Caspase-3 activity in human astrocytoma cells (AID 1224859);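 also: plate controls were ZIKV-infected untreated cells for no effect and uninfected cells for full effect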
Run conditions: SNB-19 ZIKV-induced caspase-3/7, luminescence, 6 h; series mostly up to 45.7 µM
Calls of active or inactive are those of the source. Calls follow the shape of the dose curve; as a rule, active = well fitted inhibition curve with a large enough effect; inconclusive = small, poorly fitted or top-dose-only effect; inactive = no such curve, though single readings can be large or run the other way.
Measurement name: outcome

INSERT INTO measurements (molecule, measurement_name, result) VALUES
  ('CN1CCc2c(c3ccccc3n2Cc2ccc(C(=O)NO)cc2)C1', 'outcome', 'inactive'),
  ('CN[C@@H]1C[C@H]2O[C@@](C)([C@H]1OC)n1c3ccccc3c3c4c(c5c6ccccc6n2c5c31)C(=O)N[C@H]4O', 'outcome', 'inactive'),
  ('Oc1cc(-c2nc(-c3ccccc3)[nH]c2-c2ccncc2)ccc1Cl', 'outcome', 'inactive'),
  ('Nc1cccc2c1C(=O)N(C1CCC(=O)NC1=O)C2=O (stereo not drawn)', 'outcome', 'inactive'),
  ('CC(=O)N[C@@H]1[C@H](O[C@@H]2c3ccc(c(Cl)c3)Oc3cc4cc(c3O[C@H]3O[C@H](CO)[C@@H](O)[C@H](O)[C@H]3NC(=O)CCCCCCCC(C)C)Oc3ccc(cc3Cl)C[C@H]3NC(=O)[C@H](N)c5ccc(O)c(c5)Oc5cc(O)cc(c5)[C@H](NC3=O)C(=O)N[C@H]4C(=O)N[C@H]3C(=O)N[C@@H]2C(=O)N[C@@H](C(=O)O)c2cc(O)cc(O[C@H]4O[C@H](CO)[C@@H](O)[C@H](O)[C@H]4O)c2-c2cc3ccc2O)O[C@H](CO)[C@@H](O)[C@@H]1O', 'outcome', 'inactive');

In plain terms, `CCCCCCCCCCCCCCCC(=O)OC[C@@H](NC(=O)C(Cl)Cl)[C@H](O)c1ccc([N+](=O)[O-])cc1` has a documented outcome of inactive

In plain terms, `COc1ccc2cc([S+]([O-])Cc3ncc(C)c(OC)c3C)nc2c1` has a documented outcome of inactive

In plain terms, C[C@@H]1CC[C@@]2(OC1)OC1CC3C4CC=C5CC(O)CCC5(C)C4CCC3(C)C1[C@@H]2C (stereo partly drawn) has a documented outcome of inactive

In plain terms, `CN[C@H]1[C@@H](O)[C@@H]2O[C@@H]3O[C@H](C)CC(=O)[C@]3(O)O[C@@H]2[C@@H](NC)[C@H]1O` has a documented outcome of inactive

In plain terms, `NC1=N[C@H]2[C@H](CS[C@H]2CCCCC(=O)O)N1` has a documented outcome of inactive

###

Test details: Quantitative High-Throughput drug screen in 47 multiple myeloma cell lines against the NCATS MIPE library collection: Karpas417_ECACC cell viability assay (AID 1918961)
Run conditions: Karpas417 myeloma viability, CellTiter-Glo ATP luminescence, 48 h
Records with an inconclusive call do not appear. Calls of active or inactive are those of the source. Calls come from the whole dose curve; as a rule, active = well fitted cell-killing curve with a large enough effect; inconclusive = small, poorly fitted or top-dose-only effect, or effect the other way; inactive = no such curve, though single readings can be large or run the other way.
Please state which outcome applies, choosing from active, inactive

Field: example entries. Status: answers known.
INSERT INTO measurements (structure, classification) VALUES
  ('NC(=O)Nc1cc(-c2ccc(CN3CCOCC3)cc2)sc1C(N)=O', 'active'),
  ('Cc1cnc(Nc2ccc(N3CCN(C)CC3)cc2)nc1Nc1cccc(S(=O)(=O)NC(C)(C)C)c1', 'active');

Check the results log: what was the call for `CCOc1cc2c(c(F)c1OCC)C(=N)N(CC(=O)c1cc(N3CCOCC3)c(OC)c(C(C)(C)C)c1)C2` ? inactive

Check the results log: what was the call for `CCn1c(=O)c2c(nc(C=Cc3ccc(OC)c(OC)c3)n2C)n(CC)c1=O` ? inactive

Check the results log: what was the call for `NC(=NCCCCCCN=C(N)N=C(N)Nc1ccc(Cl)cc1)N=C(N)Nc1ccc(Cl)cc1` ? active

Check the results log: what was the call for `COc1ccc([C@@H]2CNC(=O)C2)cc1OC1CCCC1` ? inactive

Check the results log: what was the call for `CCS(=O)(=O)Nc1ccc2[nH]c(O)c(C(=Nc3ccc(CN4CCCCC4)cc3)c3ccccc3)c2c1` ? active

Check the results log: what was the call for `O=C(Nc1ccc(Oc2ccnc3[nH]ccc23)c(F)c1)c1cccn(-c2ccc(F)cc2)c1=O` ? active

Check the results log: what was the call for `Nc1nc(N)c2nc(-c3cccc(O)c3)c(-c3cccc(O)c3)nc2n1` ? active

###

Test details: qHTS Screen of the MIPE 4.0 Collection Against Ewings Sarcoma (EW8) (AID 1259255);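 also: 100% = DMSO-treated cells and 0% = medium-only wells without cells; nearly all actives have a fitted effect of over 35% in size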
Run conditions: EW8 Ewing sarcoma viability, CellTiter-Glo, 48 h; series mostly up to 45.8 µM
Inconclusive results are not listed. Calls of active or inactive are those of the source. Calls come from the whole dose curve; as a rule, active = well fitted inhibition curve with a large enough effect; inconclusive = small, poorly fitted or top-dose-only effect; inactive = no such curve, though single readings can be large or run the other way.
Please state which outcome applies, choosing from 1 for active, 0 for inactive

Field: example entries. Status: answers known.
INSERT INTO measurements (compound, classification) VALUES
  ('c1coc(CNc2ncnc3nc[nH]c23)c1', 0),
  ('C[C@]12CCC(=O)C=C1[C@@H]1CC1[C@H]1[C@H]3[C@@H]4C[C@H]4[C@@]4(CCC(=O)O4)[C@@]3(C)CC[C@H]12 (stereo partly drawn)', 0),
  ('O=C(CN1C(=O)C2(CCCC2)NC[C@H]1c1cc(F)cc(F)c1)Nc1ccc2c(c1)C[C@@]1(C2)C(=O)Nc2ncccc21', 0);

Check the results log: what was the call for `Cc1cc(-c2nnc3n2CCCCC3)c(C)n1-c1ccccc1` ? 0

###

Test details: Quantitative High-Throughput drug screen in 47 multiple myeloma cell lines against the NCATS MIPE library collection: OPM1_PLB cell viability assay (AID 1918989); also: nearly all actives have a fitted effect of over 40% in size; also: potency is read from the fitted curve at half-maximal effect
Run conditions: CellTiter-Glo, 48 h; series mostly up to 45.8 µM
Inconclusive results are not listed. Calls of active or inactive are those of the source. The call rests on the fitted dose curve; in most records, active means well fitted cell-killing curve with a large enough effect; inconclusive means small, poorly fitted or top-dose-only effect, or effect the other way; inactive means no such curve, though single readings can be large or run the other way. Residues, ends and D or L forms follow the SMILES beside them. *: point of attachment. Cbz = O=C(OCc1ccccc1)*
Measurement name: Potency

INSERT INTO results (compound, result) VALUES
  ('N#Cc1ccc(COC[C@H]2O[C@@H](n3c(NCc4ccc(Cl)c(Cl)c4)nc4c(N)ncnc43)[C@@H](O)[C@@H]2O)cc1', '5.26 µM (active)'),
  ('CCCCCCCCCCCC(CC1OC(=O)C1CCCCCC)OC(=O)C(CC(C)C)NC=O (stereo not drawn)', 'inactive'),
  ('COc1cc(N2CCC(C(N)=O)CC2)ccc1Nc1nc(N)c(Cl)c(Nc2ccccc2S(=O)(=O)C(C)C)n1', '5.9 µM (active)'),
  ('CC(=O)N[C@H]1[C@@H]([C@H](O)[C@H](O)CO)OC(C(=O)O)=C[C@@H]1N=C(N)N', 'inactive'),
  ('CC(C)C[C@@H](C=O)NC(=O)[C@H](CC(C)C)NC(=O)[C@H](CC(C)C)NC(=O)OCc1ccccc1 (Cbz-Leu-Leu-Leu-aldehyde)', '0.296 µM (active)'),
  ('COC1=C2C[C@@H](C)C[C@H](OC)[C@@H](O)[C@@H](C)C=C(C)[C@H](OC(N)=O)[C@@H](OC)C=CC=C(C)C(=O)NC(=CC1=O)C2=O', '0.418 µM (active)'),
  ('CN1CCc2c(c3ccccc3n2Cc2ccc(C(=O)NO)cc2)C1', '16.6 µM (active)');

Please find the next compound below.
In plain terms, `COc1cc(OC)cc(-c2ccc3ncc4ccc(=O)n(-c5ccc(N6CCNCC6)c(C(F)(F)F)c5)c4c3c2)c1` has a documented Potency of 4.69 µM (active)

###

Test details: qHTS of pediatric cancer cell lines to identify multiple opportunities for drug repurposing: Primary screen for OHS-50 cells (AID 1347103); also: nearly all actives have a fitted effect of over 40% in size
Run conditions: OHS-50 osteosarcoma viability, CellTiter-Glo luminescence, 48 h; series mostly up to 57.3 µM
Inconclusive results are not listed. Calls of active or inactive are those of the source. Calls come from the whole dose curve; as a rule, active = well fitted cell-killing curve with a large enough effect; inconclusive = small, poorly fitted or top-dose-only effect; inactive = no such curve, though single readings can be large or run the other way.
Please state which outcome applies, choosing from true (1) for active, false (0) for inactive

Field: example entries. Status: answers known.
INSERT INTO measurements (compound, classification) VALUES
  ('COc1ccc(C[C@@H](C)[C@@H](C)Cc2ccc(OC)c(OC)c2)cc1OC', 'true (1)'),
  ('CCOC(=O)[C@@H](N)Cc1ccc(-c2cc(O[C@H](c3ccc(Cl)cc3-n3ccc(C)n3)C(F)(F)F)nc(N)n2)cc1', 'true (1)'),
  ('Cc1ccc2nc(NCCN)c3ncc(C)n3c2c1', 'true (1)'),
  ('CCC(C(=O)O)C1CCC(C)C(C(C)C(O)C(C)C(=O)C(CC)C2OC3(C=CC(O)[C@@]4(CC[C@](C)(C5CC[C@@](O)(CC)C(C)O5)O4)O3)C(C)CC2C)O1 (some centres undefined)', 'true (1)'),
  ('O=C(O)[C@H](CC(=O)N1C[C@@H]2CCCC[C@H]2C1)Cc1ccccc1', 'false (0)'),
  ('c1ccc(CNc2nc(NCc3ccccc3)c3ccccc3n2)cc1', 'true (1)'),
  ('CN(C)CC(=O)N1CCC(c2ccc(NC(=O)c3ncc(C#N)[nH]3)c(C3=CCCCC3)c2)CC1', 'true (1)'),
  ('OC[C@@H](O)[C@@H](O)[C@H](O)[C@@H](O)CO', 'false (0)');

Now for a further compound.
Check the results log: what was the call for `C[C@H](O)[C@@H]1C(=O)N2C(C(=O)O)=C(S[C@@H]3CN[C@H](CNS(N)(=O)=O)C3)[C@@H](C)[C@@H]12` ? false (0)

The reported numbers originate from PubChem BioAssay (NCATS).
